Test system: HCC827
Test: In vitro cytotoxicity (cell proliferation inhibition), SRB dye or Cell titer glo
Assay type: cell-based, human
Conditions: HCC827, 144 hours
Square brackets hold non-standard residues; d marks the D form. Peptide text beside a SMILES is read from it. * marks the point of attachment. Dolaproine = CO[C@@H]([C@@H]1CCCN1)[C@@H](C)C(=O)O; Dil = CC[C@H](C)[C@H](NC)[C@@H](CC(=O)O)OC; X1 = C[C@@H](N*)[C@@H](O)c1ccccc1; NMeV = CN[C@H](C(=O)O)C(C)C

[
  {
    "COMPOUND": "CC[C@H](C)[C@@H]([C@@H](CC(=O)N1CCC[C@H]1[C@H](OC)[C@@H](C)C(=O)N[C@H](C)[C@@H](O)c1ccccc1)OC)N(C)C(=O)[C@@H](NC(=O)[C@@H](NC)C(C)C)C(C)C [MMAE, monomethyl auristatin E] (H-[NMeV]V[Dil][Dolaproine]-X1)",
    "CC50 (nM)": 0.674
  }
]
